IC50 values by entry
system tested: Beta Secretase enzyme (BACE) (Homo sapiens)
Sequence (P56817 46-501): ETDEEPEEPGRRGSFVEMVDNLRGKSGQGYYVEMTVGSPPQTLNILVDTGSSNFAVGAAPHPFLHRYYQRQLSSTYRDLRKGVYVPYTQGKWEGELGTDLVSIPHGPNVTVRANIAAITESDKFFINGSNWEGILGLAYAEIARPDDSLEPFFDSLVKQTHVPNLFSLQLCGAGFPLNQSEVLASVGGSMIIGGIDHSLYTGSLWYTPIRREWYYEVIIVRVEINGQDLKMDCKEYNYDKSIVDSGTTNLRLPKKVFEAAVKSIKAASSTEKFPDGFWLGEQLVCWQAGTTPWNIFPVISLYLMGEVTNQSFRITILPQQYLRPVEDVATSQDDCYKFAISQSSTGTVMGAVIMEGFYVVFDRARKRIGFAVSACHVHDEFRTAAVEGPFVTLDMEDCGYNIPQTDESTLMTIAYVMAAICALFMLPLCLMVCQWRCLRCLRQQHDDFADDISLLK
method: In vitro enzymatic BACE FRET (fluorescence resonance energy transfer) assay;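 also: fluorescence read after 1 h with 50 nM quenched peptide substrate spanning the BACE cleavage site, in pH 4.2 acetate buffer containing 10% DMSO and nonionic detergent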
Format: biochemical
condition description: BACE enzyme assay; read-out: BACE1 FRET assay

{"mol smiles": "CC(=O)N[C@@H](Cc1ccc2c(c1)OCO2)[C@H](O)CN[C@H]1CC2(CCC2)Oc2ncc(CC(F)(F)F)cc21", "IC50 (nM)": 178}
{"mol smiles": "COCC(=O)N[C@@H](Cc1ccccc1)[C@H](O)CN[C@H]1CC2(CCC2)Oc2c1cc(CC(C)C)cc2-n1ccnc1", "IC50 (nM)": 25}
{"mol smiles": "CC(C)Cc1cnc2c(c1)[C@@H](NC[C@@H](O)[C@H](Cc1ccc3c(c1)OCO3)NC(=O)[C@@H]1CCCO1)CC1(CCC1)O2", "IC50 (nM)": 74}
